- run.description: small-molecule microarray binders of probe aEGFR, primary screen, biochemical, biotinylated probe, 635/667 nm fluorescence (AID 1097);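 note: probe is a biotinylated anti-EGFR antibody binding compounds printed on slides; score combines fluorescence near 667 nm and signal to noise of each spot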
- condition.parameters: higher = more signal
Use -0.1 as the dividing line for composite z-score, with the line itself on the fulfilled side and lower values as not fulfilled.

A selection of reference data follows.
compound	classification
[N-]=[N+]=NCc1ccccc1[C@@H]1OC(c2ccc(OCCCO)cc2)=N[C@]1(Cc1ccccc1)C(=O)NCc1ccccc1	not fulfilled
C=CCN1C(=O)[C@]2(O[C@H](CCn3cc([C@H](O)c4ccccc4)nn3)[C@@H]([Si](C)(C)c3ccc(OC)cc3)[C@@H]2C)c2cc(N3C(=O)c4cccc5cccc3c45)ccc21	not fulfilled
COCCOC(=O)N1C(=O)[C@@]2(c3cc(C#CC4(O)CCCCCC4)ccc31)[C@H](C(=O)NC[C@H](O)c1ccccc1)[C@H]1C(=O)O[C@H](c3ccccc3)[C@H](c3ccccc3)N1[C@@H]2c1ccc(O)cc1	fulfilled
COC(=O)c1ccc([C@H](NC(=O)c2ccccc2)[C@]2(C)C[C@H]2C2CCCCC2)cc1	not fulfilled
O=C1C2C=CC(C(O)c3cccs3)N(Nc3ccccc3)C2C(=O)N1c1ccccc1 (centres undefined)	fulfilled
C=CCC(OC(C)=O)[C@@H]1[C@@H](N(Cc2cc3ccccc3o2)C(=O)c2cccc3ccccc23)c2cc(OCCCO)ccc2N1C(=O)c1ccc2ccccc2c1 (some centres undefined)	not fulfilled
COc1cc(OC)c(C(O)C2C=CC3C(=O)N(c4ccccc4)C(=O)C3N2Nc2ccccc2F)cc1Br (centres undefined)	fulfilled
CCN(CC)c1ccc(N2CC=CC34O[C@@H]5C=CCOC(=O)[C@@H]5[C@H]3C(=O)N(CCO)[C@@H]4C2=O)cc1 (some centres undefined)	not fulfilled
CCCCC(O)C1C=CC2C(=O)N(C)C(=O)C2N1Nc1ccccc1 (centres undefined)	not fulfilled
COCCCNC(=O)[C@@H]1c2ccccc2C(=O)N(Cc2cc(C(F)(F)F)cc(C(F)(F)F)c2)[C@H]1c1ccc(CO)cc1	fulfilled

Please check the record CN(C)CCCCNC(=O)[C@H]1C[C@H]2C(=O)N[C@@H](Cc3ccccc3)C(=O)N2[C@H]1c1cccc(OCCO)c1 and state if its composite z-score is at or above -0.1. fulfilled

Another compound: COCCOC(=O)N1C(=O)[C@@]2(c3cc(C#CC4=CCCCC4)ccc31)[C@H](C(=O)N1CCc3cc(OC)c(OC)cc3C1)[C@H]1C(=O)O[C@H](c3ccccc3)[C@H](c3ccccc3)N1[C@@H]2c1ccc(O)cc1 fulfilled

Another compound: CC(C)CNC(=O)[C@@]1(C)c2ccccc2C(=O)N(Cc2cc(F)cc(C(F)(F)F)c2)[C@H]1c1ccc(CO)cc1 not fulfilled

Another compound: NC(=O)[C@@]1(CCS(=O)(=O)c2ccccc2)COC(c2ccc(OCCCO)cc2)=N1 fulfilled

Another compound: COc1ccc(CCNC(=O)[C@@H]2c3ccccc3C(=O)N(CC34CC5CC(CC(C5)C3)C4)[C@H]2c2ccc(CO)cc2)cc1 fulfilled

Another compound: COC(=O)[C@H](Cc1ccc(O)cc1)N1CC2=CCCC=C[C@@H]2[C@H]1[C@H](O)Cc1ccccc1 not fulfilled

Another compound: COCCOC(=O)N1C(=O)[C@@]2(c3cc(C#CCCO)ccc31)[C@H](c1ccccc1OCCO)N1[C@H](c3ccccc3)[C@H](c3ccccc3)OC(=O)[C@H]1[C@@H]2C(=O)N1CCc2cc(OC)c(OC)cc2C1 fulfilled

Another compound: C=CCN1C(=O)[C@]2(O[C@H](CCO)[C@@H]([Si](C)(C)c3ccc(OC)cc3)[C@@H]2C)c2ccccc21 not fulfilled

Another compound: C#CCN=C(N)N fulfilled

Another compound: COCCOC(=O)N1C(=O)[C@@]2(c3cc(C#CC4=CCCCC4)ccc31)[C@H](c1ccccc1OCCO)N1[C@H](c3ccccc3)[C@H](c3ccccc3)OC(=O)[C@H]1[C@@H]2C(N)=O fulfilled

Another compound: O=C1NC(=O)C2C1C=CC(C(O)c1cccc(O)c1)N2Nc1ccc(Cl)cc1Cl (centres undefined) fulfilled

Another compound: COCCOC(=O)N1C(=O)[C@@]2(c3cc(C#CCC(C(=O)OC)C(=O)OC)ccc31)[C@H](C(=O)N1CCCCCCC1)[C@H]1C(=O)O[C@H](c3ccccc3)[C@H](c3ccccc3)N1[C@@H]2c1ccccc1OCCO fulfilled
